Reported inhibition values for the following compounds.
- assay.info: Inhibition of spontaneous lipid peroxidation at 10e-5 M in rat brain homogenate
The figure you give is taken to be in %; do not add the unit.

As a guide, the following entries are already answered.
# chemical.string, inhibition (%)
measured = [
    ("O=C(c1ccc(Cl)cc1)c1ccc2[nH]c(=O)[se]c2c1", -5),
    ("Cn1c(=O)[se]c2cc(C(=O)c3ccc(Cl)cc3)ccc21", -3),
    ("CN(C)C(=O)Nc1ccccc1[Se][Se]c1ccccc1NC(=O)N(C)C", 96),
]

Just so you know, measured inhibition for Nc1ccc(C(=O)c2ccc(Cl)cc2)cc1[Se][Se]c1cc(C(=O)c2ccc(Cl)cc2)ccc1N came out at 100

Just so you know, measured inhibition for CC(=O)c1ccc(N)c([Se][Se]c2cc(C(C)=O)ccc2N)c1 came out at 100

Just so you know, measured inhibition for Cn1c(=O)[se]c2cc(C(=O)c3ccccc3)ccc21 came out at -1

Just so you know, measured inhibition for CN(C)C(=O)Nc1ccc(C(=O)c2ccccc2)cc1[Se][Se]c1cc(C(=O)c2ccccc2)ccc1NC(=O)N(C)C came out at 98

Entry source: ChEMBL document CHEMBL1127451
